Provide the reported DC50 of each item.
# Tested System: CYCLIN K (nuclear staining in CAL-120 cells) (Homo sapiens)
# Construct: endogenous in cells; host or cells: CAL-120 human breast cancer cells (DSMZ ACC 459)
# Sequence (O75909 whole entry): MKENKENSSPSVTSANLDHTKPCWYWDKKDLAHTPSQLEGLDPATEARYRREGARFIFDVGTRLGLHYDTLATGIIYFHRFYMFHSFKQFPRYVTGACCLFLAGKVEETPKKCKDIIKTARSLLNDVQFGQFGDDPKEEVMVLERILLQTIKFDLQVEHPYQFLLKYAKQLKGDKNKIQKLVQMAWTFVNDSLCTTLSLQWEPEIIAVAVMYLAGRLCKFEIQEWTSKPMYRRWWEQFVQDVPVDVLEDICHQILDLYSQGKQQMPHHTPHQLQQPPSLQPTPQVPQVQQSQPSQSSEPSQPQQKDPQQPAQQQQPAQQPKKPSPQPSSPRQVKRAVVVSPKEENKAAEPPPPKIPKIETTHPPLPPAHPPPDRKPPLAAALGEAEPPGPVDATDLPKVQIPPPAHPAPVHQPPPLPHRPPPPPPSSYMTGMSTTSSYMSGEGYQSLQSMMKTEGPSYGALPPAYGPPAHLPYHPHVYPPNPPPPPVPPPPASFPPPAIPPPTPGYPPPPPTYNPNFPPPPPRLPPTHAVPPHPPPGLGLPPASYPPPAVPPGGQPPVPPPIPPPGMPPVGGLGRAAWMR
# Sequence (Q9NYV4 whole entry partner): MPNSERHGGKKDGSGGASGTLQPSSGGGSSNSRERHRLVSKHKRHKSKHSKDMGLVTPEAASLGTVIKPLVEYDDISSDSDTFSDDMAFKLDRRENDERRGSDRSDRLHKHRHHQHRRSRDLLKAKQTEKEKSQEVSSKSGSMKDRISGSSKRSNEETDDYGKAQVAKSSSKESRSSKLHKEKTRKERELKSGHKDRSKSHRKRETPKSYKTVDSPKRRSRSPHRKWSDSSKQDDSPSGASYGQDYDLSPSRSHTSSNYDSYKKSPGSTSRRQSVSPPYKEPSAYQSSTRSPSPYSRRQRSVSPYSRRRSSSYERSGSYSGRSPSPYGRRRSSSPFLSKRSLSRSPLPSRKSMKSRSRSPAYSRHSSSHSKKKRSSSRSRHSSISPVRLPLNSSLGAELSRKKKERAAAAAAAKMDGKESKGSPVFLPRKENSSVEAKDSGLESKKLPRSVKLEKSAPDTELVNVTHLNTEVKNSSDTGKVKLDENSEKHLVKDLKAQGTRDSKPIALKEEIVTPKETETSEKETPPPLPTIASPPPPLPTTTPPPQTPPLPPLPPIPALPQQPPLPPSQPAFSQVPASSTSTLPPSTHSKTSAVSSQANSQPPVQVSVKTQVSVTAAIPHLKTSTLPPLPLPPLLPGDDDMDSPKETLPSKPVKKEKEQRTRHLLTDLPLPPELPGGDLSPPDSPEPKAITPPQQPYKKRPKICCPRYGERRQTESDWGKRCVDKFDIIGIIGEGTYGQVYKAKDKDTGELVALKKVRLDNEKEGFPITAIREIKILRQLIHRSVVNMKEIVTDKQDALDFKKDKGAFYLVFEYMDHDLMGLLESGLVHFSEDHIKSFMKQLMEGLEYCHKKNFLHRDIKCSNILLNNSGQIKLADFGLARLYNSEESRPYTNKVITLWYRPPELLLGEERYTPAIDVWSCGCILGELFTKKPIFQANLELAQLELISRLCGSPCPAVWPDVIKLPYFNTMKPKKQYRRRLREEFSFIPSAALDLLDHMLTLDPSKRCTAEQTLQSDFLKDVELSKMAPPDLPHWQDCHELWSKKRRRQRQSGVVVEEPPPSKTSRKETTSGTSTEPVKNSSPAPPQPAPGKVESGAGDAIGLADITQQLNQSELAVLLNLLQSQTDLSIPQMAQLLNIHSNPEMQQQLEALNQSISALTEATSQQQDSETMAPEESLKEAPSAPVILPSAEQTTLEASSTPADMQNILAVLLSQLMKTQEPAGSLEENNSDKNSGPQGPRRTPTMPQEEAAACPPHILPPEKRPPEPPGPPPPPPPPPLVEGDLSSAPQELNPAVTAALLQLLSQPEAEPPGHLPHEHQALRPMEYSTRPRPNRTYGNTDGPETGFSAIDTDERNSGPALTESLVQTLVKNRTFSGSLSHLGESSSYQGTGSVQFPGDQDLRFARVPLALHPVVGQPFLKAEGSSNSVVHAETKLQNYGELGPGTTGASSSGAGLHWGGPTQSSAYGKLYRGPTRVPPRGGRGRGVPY
# Procedure Text: CYCLIN K nuclear protein level: immunofluorescence high content analysis (CAL-120)
# Type: cell-based
# Condition Description: 24 h, 50% reduction of nuclear CCNK staining intensity, median, read-out: CYCLIN K degradation IF, DC50-[mol/l] (median)
# Procedure: 8. CYCLIN K nuclear protein level: immunofluorescence High Content Analysis CAL-120 human breast cancer cells (DSMZ ACC 459) are seeded in 1536-well microtiter plates (800 cells per well) containing 50 nanoL of compounds in Dose-Response. Control wells received DMSO or Example 4. […] Nuclear and cytoplasmic intensity as well as the nuclear/cytoplasmic intensity ratio is determined by automated image analysis using custom generated scripts (MetaXpress). […]
Please don't drop the unit; write it after the number.

The value of DC50 recorded for `COc1cccc(-c2cnc(CNc3nc(N4CCOCC4)nc4c(Br)cnn34)[nH]2)c1` when tested on CYCLIN K (nuclear staining in CAL-120 cells) (Homo sapiens) reads 1.34 nM

Summary line: `Cc1ccc2[nH]c(CNc3nc(N4C[C@@H](C)N[C@@H](C)C4)nc4c(C5CC5)cnn34)nc2c1` , CYCLIN K (nuclear staining in CAL-120 cells) (Homo sapiens), reported DC50 = 0.0954 nM

Known value: CYCLIN K (nuclear staining in CAL-120 cells) (Homo sapiens) DC50 of the compound `COc1cccc2[nH]c(CNc3nc(N4CCNCC4)nc4c(C5CC5)cnn34)nc12` equals 0.478 nM

Tested on CYCLIN K (nuclear staining in CAL-120 cells) (Homo sapiens): `Brc1cnn2c(NCc3nc4ccccc4[nH]3)nc(N3CC4(COC4)C3)nc12` . Observed DC50: 7.03 nM

The reported DC50 value, CYCLIN K (nuclear staining in CAL-120 cells) (Homo sapiens), for `Fc1cc2nc(CNc3nc(N4CCOCC4)nc4c(C(F)(F)F)cnn34)[nH]c2cc1F` reads 0.113 nM

CYCLIN K (nuclear staining in CAL-120 cells) (Homo sapiens) assay, compound `Fc1ccc2[nH]c(CNc3nc(N4CCOCC4)nc4c(C5CCCC5)cnn34)nc2c1F` , recorded DC50 = 1.94 nM

# `Fc1c(Cl)ccc2[nH]c(CNc3nc(N4CC5CCC(C4)N5)nc4c(C5CC5)cnn34)nc12` with CYCLIN K (nuclear staining in CAL-120 cells) (Homo sapiens): DC50 is 0.404 nM

Param item: FC1(F)CC1c1cnn2c(NCc3nc4ccccc4[nH]3)nc(N3CCOCC3)nc12 (centres unmarked) ; param system: CYCLIN K (nuclear staining in CAL-120 cells) (Homo sapiens); output DC50: 3.78 nM

====

Give measured pIC50 for each item. Keep answers brief.
# Tested System: CDK9/CycT1 (Homo sapiens)
# Construct: Recombinant full-length His-tagged human CDK9 and CycT1; purchased Life Technologies PV4131; host or cells: insect cells
# Sequence (P50750 whole entry): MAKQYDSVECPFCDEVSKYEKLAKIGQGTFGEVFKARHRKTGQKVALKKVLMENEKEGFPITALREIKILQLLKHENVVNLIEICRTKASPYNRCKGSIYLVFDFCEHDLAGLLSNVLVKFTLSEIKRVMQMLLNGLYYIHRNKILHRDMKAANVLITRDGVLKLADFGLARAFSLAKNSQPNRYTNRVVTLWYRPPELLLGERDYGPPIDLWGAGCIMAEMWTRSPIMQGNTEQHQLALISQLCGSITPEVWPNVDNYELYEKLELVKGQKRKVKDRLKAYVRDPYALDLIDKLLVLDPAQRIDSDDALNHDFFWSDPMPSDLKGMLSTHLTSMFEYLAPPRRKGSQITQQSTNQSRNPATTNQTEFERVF
# Sequence (O60563 whole entry partner): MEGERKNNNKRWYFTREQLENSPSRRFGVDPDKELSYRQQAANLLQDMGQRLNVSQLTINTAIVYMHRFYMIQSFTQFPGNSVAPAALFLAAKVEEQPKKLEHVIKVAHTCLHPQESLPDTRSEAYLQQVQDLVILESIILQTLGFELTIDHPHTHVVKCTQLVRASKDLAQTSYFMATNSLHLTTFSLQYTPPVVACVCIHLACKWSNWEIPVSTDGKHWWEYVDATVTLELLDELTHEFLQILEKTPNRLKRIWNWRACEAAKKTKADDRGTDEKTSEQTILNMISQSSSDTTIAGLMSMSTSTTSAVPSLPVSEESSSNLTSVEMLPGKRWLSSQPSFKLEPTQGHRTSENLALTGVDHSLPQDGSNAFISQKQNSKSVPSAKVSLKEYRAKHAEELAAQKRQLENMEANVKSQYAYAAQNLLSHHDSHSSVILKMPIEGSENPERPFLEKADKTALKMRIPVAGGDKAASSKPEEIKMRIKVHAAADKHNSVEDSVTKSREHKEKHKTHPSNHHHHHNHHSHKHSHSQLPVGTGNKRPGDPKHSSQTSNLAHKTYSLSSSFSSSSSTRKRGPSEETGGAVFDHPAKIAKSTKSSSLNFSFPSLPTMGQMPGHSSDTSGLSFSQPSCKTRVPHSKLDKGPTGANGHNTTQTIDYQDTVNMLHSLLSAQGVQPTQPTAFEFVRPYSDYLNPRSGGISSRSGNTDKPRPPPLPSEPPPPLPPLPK
# Procedure Text: CDK9/CycT1 high ATP kinase assay (TR-FRET, 2 mM ATP)
# Assay type: biochemical
# Condition Description: 2 mM ATP (high ATP); median; read-out: CDK9/CyclinT1, 2 mM ATP (high ATP), IC50 (median)
# Procedure: CDK9/CycT1-inhibitory activity of compounds of the present invention at a high ATP concentration after preincubation of enzyme and test compounds was quantified employing the CDK9/CycT1 TR-FRET assay as described in the following paragraphs. Recombinant full-length His-tagged human CDK9 and CycT1, expressed in insect cells and purified by Ni-NTA affinity chromatography, were purchased from Life Technologies (Cat. No PV4131). As substrate for the kinase reaction biotinylated peptide biotin-Ttds-[…] […]
Please report pIC50 as the negative decimal logarithm of the molar concentration, giving only the number.

pIC50 in this record for `Clc1cccc(-c2cnc(CNc3nc(N4CCOCC4)nc4c(Br)cnn34)[nH]2)c1` : 5.27

Memo: `Cc1cc2nc(CNc3nc(N(C)CC(C)(C)O)nc4c(C5CC5)cnn34)[nH]c2cc1C` , reported pIC50: 5.14
